# SUBJECT OF TEST: BACE1 (Homo sapiens, UniProt P56817)
# Sequence (P56817 46-501, species assumed): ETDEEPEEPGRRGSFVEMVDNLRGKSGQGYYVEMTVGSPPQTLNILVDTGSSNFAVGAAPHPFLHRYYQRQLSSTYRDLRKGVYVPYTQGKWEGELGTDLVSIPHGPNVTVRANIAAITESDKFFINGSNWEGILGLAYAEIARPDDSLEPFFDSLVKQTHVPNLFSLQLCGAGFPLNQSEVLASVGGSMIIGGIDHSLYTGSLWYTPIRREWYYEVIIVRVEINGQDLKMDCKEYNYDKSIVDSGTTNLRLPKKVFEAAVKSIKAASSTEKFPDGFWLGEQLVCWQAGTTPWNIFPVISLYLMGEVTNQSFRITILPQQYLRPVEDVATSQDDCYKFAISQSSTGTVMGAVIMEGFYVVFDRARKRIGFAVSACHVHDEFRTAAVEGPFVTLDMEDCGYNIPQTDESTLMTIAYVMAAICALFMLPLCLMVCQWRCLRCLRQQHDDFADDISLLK
# EXPERIMENT: In vitro enzymatic BACE FRET assay
# Type: biochemical
# SETTINGS: beta secretase enzyme 0.2 nM, FRET substrate 50 nM, pH 4.2; read-out: BACE1 FRET assay (IC50 class)
pIC50: −log10 of the molar value.
Below: a set of entries, each annotated with reported pIC50.

Completed entries (count: 5):
# COMPOUND, pIC50
data = [
    ("CCC1CCCCN1C(=O)c1cccc(C)c1-c1ccc2nc(N)c(N3CCOCC3)cc2c1 (centres unmarked) [Example 81]", "> 7.00"),
    ("Cc1cccc(C(=O)c2cccc(Cl)c2)c1-c1ccc2nc(N)c(N3CCOCC3)cc2c1 [Example 174]", "> 7.00"),
    ("Cc1cccc(C(=O)c2ccccc2)c1-c1ccc2nc(N)c(N3CCOCC3)cc2c1 [Example 2]", "> 7.00"),
    ("Cc1cccc(-c2ncc3ccccn23)c1-c1ccc2nc(N)c(N3CCOCC3)cc2c1 [Example 30]", "6.30 to 7.00"),
    ("Cc1cccc(C(=O)N(C)[C@H](C)c2ccccc2)c1-c1ccc2nc(N)c(N3CCOCC3)cc2c1 [Example 133]", "> 7.00"),
]

[Q] Please report the recorded pIC50 for Cc1ccc(N(C)C(=O)c2cccc(C)c2-c2ccc3nc(N)c(N4CCOCC4)cc3c2)cc1 [Example 131] .
[A] > 7.00

[Q] Please report the recorded pIC50 for Cc1cccc(C(=O)N2CCCC2)c1-c1ccc2nc(N)c(C3=CCCC3)cc2c1 [Example 57] .
[A] 6.30 to 7.00

[Q] Please report the recorded pIC50 for Cc1cccc(C(N)c2ccccc2)c1-c1ccc2nc(N)c(N3CCOCC3)cc2c1 (centres unmarked) [Example 17] .
[A] > 7.00

----------
# SUBJECT OF TEST: UniProtKB P56817
# EXPERIMENT: In vitro enzymatic BACE FRET assay
# Format: biochemical
# SETTINGS: beta secretase enzyme 0.2 nM, FRET substrate 50 nM, pH 4.2; read-out: BACE1 FRET assay (IC50 class)
# Method: In Vitro Enzymatic BACE FRET (Fluorescence Resonance Energy Transfer) Assay (Enzyme Assay Data in Table 1) The assay buffer used in this screen is 0.05 M acetate, pH 4.2, 10% DMSO final, 100 uM genapol (which is a nonionic detergent, below its Critical Micelle Concentration). […] The FRET assay is terminated with by addition of Tris buffer, which raises the pH to neutrality, and the fluorescence is determined. […]
pIC50: −log10 of the molar value.
QUANTITY MEASURED: pIC50

Completed entries (count: 8):
# SMILES CODE, pIC50
records = [
    ("Cc1cccc(C(=O)N2CCCC2)c1-c1ccc2nc(N)c(N3C[C@@H]4C[C@H]3CO4)cc2c1", "> 7.00"),
    ("Cc1cccc(/C(=N/O)c2ccccc2)c1-c1ccc2nc(N)c(N3CCOCC3)cc2c1", "> 7.00"),
    ("Nc1nc2ccc(-c3c(CC4OCCO4)cccc3C(=O)N3CCCC3)cc2cc1N1CCOCC1", "> 7.00"),
    ("Cc1cccc(C(=O)N2CCC(F)CC2)c1-c1ccc2nc(N)c(N3CCOCC3)cc2c1", "> 7.00"),
    ("Cc1cccc(N2CC(C)(C)OCC2=O)c1-c1ccc2nc(N)c(N3CCOCC3)cc2c1", "6.30 to 7.00"),
    ("Nc1nc2ccc(-c3ccccc3C(=O)c3ccccc3)cc2cc1N1CCOCC1", "6.30 to 7.00"),
    ("Cc1cccc(Cc2cccc(C#N)c2)c1-c1ccc2nc(N)c(N3CCOCC3)cc2c1", "> 7.00"),
    ("COc1cccc(Cc2cccc(C)c2-c2ccc3nc(N)c(N4CCOCC4)cc3c2)c1", "> 7.00"),
]

[Q] Please report the recorded pIC50 for "Cc1cccc(C(=O)c2ccccn2)c1-c1ccc2nc(N)c(C3CCOCC3)cc2c1" .
[A] > 7.00

[Q] Please report the recorded pIC50 for "Cc1cccc(OCc2ccccc2)c1-c1ccc2nc(N)c(N3CCOCC3)cc2c1" .
[A] > 7.00

[Q] Please report the recorded pIC50 for "Nc1nc2ccc(-c3cccc(F)c3C(=O)N3CCCC3)cc2cc1N1CCOCC1" .
[A] 5.30 to 6.00

[Q] Please report the recorded pIC50 for "Cc1cccc(C(=O)N(C)CC(F)(F)F)c1-c1ccc2nc(N)c(N3CCOCC3)cc2c1" .
[A] 6.30 to 7.00

[Q] Please report the recorded pIC50 for "Cc1cccc(C(=O)N2CC=CC2)c1-c1ccc2nc(N)c(N3CCOCC3)cc2c1" .
[A] > 7.00

[Q] Please report the recorded pIC50 for "Nc1nc2ccc(-c3ccccc3F)cc2cc1N1CCOCC1" .
[A] 5.30 to 6.00

[Q] Please report the recorded pIC50 for "Cc1cccc(C2=NCCc3ccccc32)c1-c1ccc2nc(N)c(N3CCOCC3)cc2c1" .
[A] 6.30 to 7.00

[Q] Please report the recorded pIC50 for "COc1ccc(C(=O)c2cccc(C)c2-c2ccc3nc(N)c(N4CCOCC4)cc3c2)cc1" .
[A] > 7.00

[Q] Please report the recorded pIC50 for "Cc1cccc(C(=O)N2CCSCC2)c1-c1ccc2nc(N)c(N3CCOCC3)cc2c1" .
[A] > 7.00

----------
# SUBJECT OF TEST: BACE1 (Homo sapiens, UniProt P56817)
# EXPERIMENT: In vitro enzymatic BACE FRET assay
# Type: biochemical
# SETTINGS: beta secretase enzyme 0.2 nM, FRET substrate 50 nM, pH 4.2; read-out: BACE1 FRET assay (IC50 class)
pIC50: −log10 of the molar value.
Below: a set of entries, each annotated with reported pIC50.

Completed entries (count: 7):
# COMPOUND, pIC50
data = [
    ("CC(C)(C)CCc1cccc(C(=O)N2CCCC2)c1-c1ccc2nc(N)c(N3C[C@@H]4C[C@H]3CO4)cc2c1", "> 7.00"),
    ("Cc1cccc(C(=O)OC2CCCC2)c1-c1ccc2nc(N)c(N3CCOCC3)cc2c1", "> 7.00"),
    ("Cc1cccc(C(=O)N2C[C@H]3CC[C@@H]2C3)c1-c1ccc2nc(N)c(N3CCOCC3)cc2c1", "> 7.00"),
    ("Cc1cccc(-c2nnc3ccccn23)c1-c1ccc2nc(N)c(N3CCOCC3)cc2c1", "6.30 to 7.00"),
    ("CCCC(C)N(C)C(=O)c1cccc(C)c1-c1ccc2nc(N)c(N3CCOCC3)cc2c1 (centres unmarked)", "> 7.00"),
    ("Cc1cccc(C(=O)N(C)C)c1-c1ccc2nc(N)c(N3CCOCC3)cc2c1", "6.30 to 7.00"),
    ("Cc1cccc(C(=O)c2ccncn2)c1-c1ccc2nc(N)c(N3CCOCC3)cc2c1", "6.30 to 7.00"),
]

[Q] Please report the recorded pIC50 for "Cc1cccc(C(=O)Nc2ccccc2)c1-c1ccc2nc(N)c(N3CCOCC3)cc2c1" .
[A] 5.30 to 6.00

----------
Below: a set of entries, each annotated with reported pIC50.
# SUBJECT OF TEST: UniProtKB P56817
# EXPERIMENT: In vitro enzymatic BACE FRET assay
# Format: biochemical
# SETTINGS: beta secretase enzyme 0.2 nM, FRET substrate 50 nM, pH 4.2; read-out: BACE1 FRET assay (IC50 class)
# Experimental: In Vitro Enzymatic BACE FRET (Fluorescence Resonance Energy Transfer) Assay (Enzyme Assay Data in Table 1) The assay buffer used in this screen is 0.05 M acetate, pH 4.2, 10% DMSO final, 100 uM genapol (which is a nonionic detergent, below its Critical Micelle Concentration). […] The FRET assay is terminated with by addition of Tris buffer, which raises the pH to neutrality, and the fluorescence is determined. […]
pIC50: −log10 of the molar value.

# COMPOUND, pIC50
rows = [
    ("Cc1cccc(C(=O)N(C)c2ccc(F)cc2)c1-c1ccc2nc(N)c(N3CCOCC3)cc2c1", "6.30 to 7.00"),
    ("Cc1cccc(C(=O)N(C)C(C)(C)C)c1-c1ccc2nc(N)c(N3CCOCC3)cc2c1", "> 7.00"),
    ("Cc1cccc(-n2cc(Cl)c(C)n2)c1-c1ccc2nc(N)c(N3CCOCC3)cc2c1", "> 7.00"),
    ("COc1cccnc1C(N)c1cccc(C)c1-c1ccc2nc(N)c(N3CCOCC3)cc2c1 (stereo not drawn)", "6.30 to 7.00"),
]

[Q] Requested read-out pIC50, target or system UniProtKB P56817, entry "Nc1nc2ccc(-c3ccccc3C(=O)C3CCOCC3)cc2cc1N1CCOCC1"
[A] 6.30 to 7.00

[Q] Requested read-out pIC50, target or system UniProtKB P56817, entry Cc1cccc(C(=O)N2CCCC2)c1-c1ccc2nc(N)c(C3CCOC(C)(C)C3)cc2c1 (stereo not drawn)
[A] > 7.00

[Q] Requested read-out pIC50, target or system UniProtKB P56817, entry "Nc1nc2ccc(-c3cc(Cl)ccc3C(=O)N3CCCC3)cc2cc1N1CCOCC1"
[A] > 7.00
